- assay_procedure: AUC (0 to infinity) in ICR mouse plasma at 80 mg/kg, po administered as single dose
- Type: ADME, organism-based
- Design: dose 80 mg/kg, route oral, time infinity
- condition_context: ICR, plasma
quantity_measured: AUC(0-inf) (ng·h/mL)
Give the value, in units of ng·h/mL, as a plain number.

Prompt line: Look at this compound and give its reported AUC(0-inf). `CCCN(CCC)CCCOc1ccc2c(=O)c3c(F)cc(F)cc3[nH]c2c1`
Response line: 5080

Prompt line: Look at this compound and give its reported AUC(0-inf). `CCN(CC)CCOc1ccc2c(=O)c3ccc(Cl)cc3[nH]c2c1`
Response line: 5810

Prompt line: Look at this compound and give its reported AUC(0-inf). `CCCCN(CCCC)CCOc1ccc2c(=O)c3c(Cl)c(Cl)ccc3[nH]c2c1`
Response line: 3240

Prompt line: Look at this compound and give its reported AUC(0-inf). `CCCN(CCC)CCOc1ccc2c(=O)c3c(Cl)c(Cl)ccc3[nH]c2c1`
Response line: 4520

----------
Provide the recorded inhibition at 10 µM for the entries that follow.
- experimental_target: hERG (KCNH2) (Homo sapiens, UniProt Q12809)
- Sequence (Q12809 whole entry): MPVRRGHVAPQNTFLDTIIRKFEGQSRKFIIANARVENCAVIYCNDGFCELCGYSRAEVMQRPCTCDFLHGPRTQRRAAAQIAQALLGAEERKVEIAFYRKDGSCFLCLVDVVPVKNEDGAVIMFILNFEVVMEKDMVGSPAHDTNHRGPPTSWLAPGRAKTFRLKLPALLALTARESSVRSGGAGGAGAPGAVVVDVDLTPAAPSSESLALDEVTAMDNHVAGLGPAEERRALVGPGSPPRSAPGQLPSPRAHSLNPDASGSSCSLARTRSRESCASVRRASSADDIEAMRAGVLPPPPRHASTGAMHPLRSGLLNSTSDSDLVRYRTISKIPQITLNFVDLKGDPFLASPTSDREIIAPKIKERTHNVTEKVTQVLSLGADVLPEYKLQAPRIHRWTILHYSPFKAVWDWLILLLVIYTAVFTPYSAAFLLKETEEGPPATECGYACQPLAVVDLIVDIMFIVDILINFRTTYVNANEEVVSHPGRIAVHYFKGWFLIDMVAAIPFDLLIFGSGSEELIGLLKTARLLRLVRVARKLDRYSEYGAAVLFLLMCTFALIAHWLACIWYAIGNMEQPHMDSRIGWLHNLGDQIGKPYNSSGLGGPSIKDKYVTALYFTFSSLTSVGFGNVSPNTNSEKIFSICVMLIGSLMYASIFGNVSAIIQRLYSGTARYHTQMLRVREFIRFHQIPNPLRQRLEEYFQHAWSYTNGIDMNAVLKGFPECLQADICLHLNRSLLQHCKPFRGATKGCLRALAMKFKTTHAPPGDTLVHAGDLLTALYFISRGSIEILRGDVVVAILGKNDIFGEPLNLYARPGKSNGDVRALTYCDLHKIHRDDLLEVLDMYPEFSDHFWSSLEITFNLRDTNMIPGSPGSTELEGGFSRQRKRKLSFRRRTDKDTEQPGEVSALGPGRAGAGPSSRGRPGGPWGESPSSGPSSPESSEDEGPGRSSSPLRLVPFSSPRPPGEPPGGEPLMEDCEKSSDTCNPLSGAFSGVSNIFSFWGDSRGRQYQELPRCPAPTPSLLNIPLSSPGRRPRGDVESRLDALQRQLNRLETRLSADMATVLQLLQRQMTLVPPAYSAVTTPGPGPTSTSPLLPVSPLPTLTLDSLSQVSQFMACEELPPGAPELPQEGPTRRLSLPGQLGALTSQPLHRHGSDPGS
- assay_procedure: Inhibition of human ERG expressed in CHOK1 cells at 10 uM by automated patch clamp method relative to control
- Type: cell-based
- condition_context: CHO-K1 cells that express hERG
Give the value, in units of %, as a plain number.

Prompt line: Look at this compound and give its reported inhibition at 10 µM. `CCCN(CCC)CCCOc1ccc2c(=O)c3c(F)cc(F)cc3[nH]c2c1`
Response line: 102

Prompt line: Look at this compound and give its reported inhibition at 10 µM. `O=c1c2ccc(OCCN(CCC(F)(F)F)CCC(F)(F)F)cc2[nH]c2cc(F)cc(F)c12`
Response line: 17

Prompt line: Look at this compound and give its reported inhibition at 10 µM. `CCN(CC)CCOc1ccc2c(=O)c3c(Cl)c(Cl)ccc3[nH]c2c1`
Response line: 78

Prompt line: Look at this compound and give its reported inhibition at 10 µM. `CCCCN(CCCC)CCOc1ccc2c(=O)c3c(Cl)c(Cl)ccc3[nH]c2c1`
Response line: 57

Prompt line: Look at this compound and give its reported inhibition at 10 µM. `CCCN(CCC)CCOc1ccc2c(=O)c3c(F)cc(F)cc3[nH]c2c1`
Response line: 65

Prompt line: Look at this compound and give its reported inhibition at 10 µM. `CCCCCCOc1ccc2c(=O)c3c(F)cc(F)cc3[nH]c2c1`
Response line: 20

Prompt line: Look at this compound and give its reported inhibition at 10 µM. `CCCN(CCC)CCOc1ccc2c(=O)c3c(Cl)c(Cl)ccc3[nH]c2c1`
Response line: 25

Prompt line: Look at this compound and give its reported inhibition at 10 µM. `CCN(CC)CCCOc1ccc2c(=O)c3c(Cl)cc(Cl)cc3[nH]c2c1`
Response line: 59

Prompt line: Look at this compound and give its reported inhibition at 10 µM. `CCCN(CCC)CCOc1ccc2c(=O)c3c(Cl)cc(Cl)cc3[nH]c2c1`
Response line: 38

----------
- assay_procedure: Half life in human liver microsomes at 1 uM by LC-MS analysis
- Type: ADME, Microsome
Provide the recorded half-life at 1 µM for the entries that follow.

Prompt line: Look at this compound and give its reported half-life at 1 µM. `CCN(CC)CCOc1ccc2c(=O)c3ccc(F)cc3[nH]c2c1`
Response line: > 60 min

Prompt line: Look at this compound and give its reported half-life at 1 µM. `O=c1c2ccc(OCCCC(F)(F)F)cc2[nH]c2cc(F)cc(F)c12`
Response line: > 60 min

Prompt line: Look at this compound and give its reported half-life at 1 µM. `CCN(CC)CCOc1ccc2c(=O)c3ccc(Cl)cc3[nH]c2c1`
Response line: > 60 min

Prompt line: Look at this compound and give its reported half-life at 1 µM. `CCCN(CCC)CCOc1ccc2c(=O)c3cc(Cl)ccc3[nH]c2c1`
Response line: 12 min

Prompt line: Look at this compound and give its reported half-life at 1 µM. `CCN(CC)CCCOc1ccc2c(=O)c3ccc(Cl)cc3[nH]c2c1`
Response line: > 60 min

Prompt line: Look at this compound and give its reported half-life at 1 µM. `CCN(CC)CCCOc1ccc2c(=O)c3c(Cl)cc(Cl)cc3[nH]c2c1`
Response line: 9 min

Prompt line: Look at this compound and give its reported half-life at 1 µM. `O=c1c2ccc(OCCN(CCC(F)(F)F)CCC(F)(F)F)cc2[nH]c2cc(F)cc(F)c12`
Response line: 20 min

Prompt line: Look at this compound and give its reported half-life at 1 µM. `CCCN(CCC)CCOc1ccc2c(=O)c3c(Cl)cc(Cl)cc3[nH]c2c1`
Response line: > 60 min

Prompt line: Look at this compound and give its reported half-life at 1 µM. `O=c1c2ccc(OCCCCCl)cc2[nH]c2cc(F)cc(F)c12`
Response line: 14 min

Prompt line: Look at this compound and give its reported half-life at 1 µM. `CCCN(CCC)CCCOc1ccc2c(=O)c3c(F)cc(F)cc3[nH]c2c1`
Response line: > 60 min

Prompt line: Look at this compound and give its reported half-life at 1 µM. `O=c1c2ccc(OCCCl)cc2[nH]c2ccc(Cl)c(Cl)c12`
Response line: > 60 min
